Assay: Circular dichroism (CD) spectroscopy of linear and stapled peptides in water or 40% TFE/water (Example 3)
Type: physicochemical
Details: in water
Bridges are numbered along the chain shown (N, C = ends).
[0]222/[0]208 ratio of ellipticities reference
Please give only the number in your answer, with no unit.

substance	measurement-type	experimental-value
Ac-(cyclo-6,10)-VSKLR[KQLVE]RKQN-NH2 (Ac-VSKLRKQLVERKQN-NH2; lactam 6-10; SMILES CC(=O)N[C@H](C(=O)N[C@@H](CO)C(=O)N[C@@H](CCCCN)C(=O)N[C@@H](CC(C)C)C(=O)N[C@@H](CCCNC(=N)N)C(=O)N[C@H]1CCCCNC(=O)CC[C@@H](C(=O)N[C@@H](CCCNC(=N)N)C(=O)N[C@@H](CCCCN)C(=O)N[C@@H](CCC(N)=O)C(=O)N[C@@H](CC(N)=O)C(N)=O)NC(=O)[C@H](C(C)C)NC(=O)[C@H](CC(C)C)NC(=O)[C@H](CCC(N)=O)NC1=O)C(C)C) [Compound 155]	[0]222/[0]208 ratio of ellipticities	0.37

Turning to the following substance.
Entry Ac-(cyclo-7,11)-VSKLRS[ELVKK]KQN-NH2 (Ac-VSKLRSELVKKKQN-NH2; lactam 7-11; SMILES CC(=O)N[C@H](C(=O)N[C@@H](CO)C(=O)N[C@@H](CCCCN)C(=O)N[C@@H](CC(C)C)C(=O)N[C@@H](CCCNC(=N)N)C(=O)N[C@@H](CO)C(=O)N[C@H]1CCC(=O)NCCCC[C@@H](C(=O)N[C@@H](CCCCN)C(=O)N[C@@H](CCC(N)=O)C(=O)N[C@@H](CC(N)=O)C(N)=O)NC(=O)[C@H](CCCCN)NC(=O)[C@H](C(C)C)NC(=O)[C@H](CC(C)C)NC1=O)C(C)C) [Compound 153] — recorded [0]222/[0]208 ratio of ellipticities = 0.54
